biological target: NaV1.8 (Homo sapiens); test: Activity against NaV1.8 channel (Table 3); format: cell-based
pIC50: −log10 of the molar value.
endpoint_name: pIC50

Some entries whose results are on file:
- O=C([C@@H]1CCCO1)N1CCN(c2nc(-c3ccccc3O)cs2)CC1: < 4.70
- O=C(OCc1ccccc1)N1CCN(c2nc(-c3ccccc3F)cs2)CC1: < 4.70
- CC(C)(C)COC(=O)N1CCN(c2nc(-c3ccccc3F)cs2)CC1: < 4.70
- COc1ccccc1-c1csc(N2CCN(C(=O)OC(C)(C)C)CC2)n1: 4.70 to 5.00
- CC(C)COC(=O)N1CCN(c2nsc(-c3ccccc3O)n2)CC1: < 4.70
- CC(C)OC(=O)N1CCN(c2nc(-c3ccccc3O)cs2)CC1: < 4.70
- CCCCS(=O)(=O)N1CCN(c2nc(-c3ccccc3O)cs2)CC1: < 4.70
- CC(C)[C@@H](O)C(=O)NCC1CCN(c2nc(-c3ccccc3O)ns2)CC1: < 4.70

pIC50 of `O=C(O[C@H]1CCOC1)N1CCN(c2nc(-c3ccccc3O)cs2)CC1` on NaV1.8 (Homo sapiens)?
< 4.70

Enter reported pIC50 observed with NaV1.8 (Homo sapiens) for `CC(C)COC(=O)NC1CCN(c2nc(-c3ccccc3O)ns2)CC1`
< 4.70

Recorded pIC50 for `O=C([C@H]1CCCO1)N1CCN(c2nc(-c3ccccc3F)cs2)CC1` with NaV1.8 (Homo sapiens), please?
< 4.70

Value wanted: pIC50 (NaV1.8 (Homo sapiens)) of entry `CC(C)COC(=O)N1CCN(c2nc(-c3ccccc3O)cs2)CC1`
< 4.70

* * *

molecular target: NaV1.8 (Homo sapiens, UniProt Q9Y5Y9); assay: Activity against NaV1.8 channel (Table 3); assay type: cell-based
Below is a list of entries, each paired with its recorded IC50 value.

Examples with answers:
- COCCOC(=O)N1CCN(c2nc(-c3ccccc3O)cs2)CC1: > 20 µM
- COCCOC(=O)N1CCN(c2nc(-c3ccccc3F)cs2)CC1: > 20 µM
- O=C(OC1CCOC1)N1CCN(c2nc(-c3ccccc3F)cs2)CC1 (centres unmarked): > 20 µM
- Oc1ccccc1-c1csc(N2CCCCC2)n1: 10 to 20 µM

# get_value(readout= IC50, system= NaV1.8 (Homo sapiens, UniProt Q9Y5Y9)) for `CC(C)COC(=O)N1CCN(c2nc(-c3ccccc3F)cs2)CC1`
> 20 µM

Source: patent US8329702B2
